Each recorded value in this set is attributed to patent US20250275966A1.

# experimental-protocol: Intrinsic dissolution rate and solubility in 0.1 N HCl with 1% Tween 80 (USP <1087>)
# Type: physicochemical
# setup-conditions: 0.1 N HCl with 1% Tween 80, 37° C., 500 mL, pellet about 75 mg, 60 min
Counter-ions that a name gives are not always drawn.
parameter: Solubility, time point 60 min (µg/mL)
Return type: number; implicit unit µg/mL.

[2H]C([2H])([2H])C(c1cc2nnc(-c3cc(F)ccc3F)n2nc1OCc1ncnn1C)(C([2H])([2H])[2H])C([2H])([2H])[2H] [Maleate Salt]; 0.567
[2H]C([2H])([2H])C(c1cc2nnc(-c3cc(F)ccc3F)n2nc1OCc1ncnn1C)(C([2H])([2H])[2H])C([2H])([2H])[2H] [Phosphate Salt]; 0.543
[2H]C([2H])([2H])C(c1cc2nnc(-c3cc(F)ccc3F)n2nc1OCc1ncnn1C)(C([2H])([2H])[2H])C([2H])([2H])[2H] [Tosylate Salt]; 0.88
[2H]C([2H])([2H])C(c1cc2nnc(-c3cc(F)ccc3F)n2nc1OCc1ncnn1C)(C([2H])([2H])[2H])C([2H])([2H])[2H] [Fumarate Salt]; 0.576
[2H]C([2H])([2H])C(c1cc2nnc(-c3cc(F)ccc3F)n2nc1OCc1ncnn1C)(C([2H])([2H])[2H])C([2H])([2H])[2H] [Sulfate Salt]; 0.569

Let us examine a further case.
query: What measured Solubility, time point 60 min goes with [2H]C([2H])([2H])C(c1cc2nnc(-c3cc(F)ccc3F)n2nc1OCc1ncnn1C)(C([2H])([2H])[2H])C([2H])([2H])[2H] [Malonate Salt] ?
result: 0.68

---

# Solubility, time point 120 min values compiled below
# experimental-protocol: Intrinsic dissolution rate and solubility in 0.1 N HCl with 1% Tween 80 (USP <1087>)
# Assay type: physicochemical
# setup-conditions: 0.1 N HCl with 1% Tween 80, 37° C., 500 mL, pellet about 75 mg, 120 min
Structures can show the parent of a compound that is named as a salt.
Answer with a number only, understood to be in µg/mL.

[2H]C([2H])([2H])C(c1cc2nnc(-c3cc(F)ccc3F)n2nc1OCc1ncnn1C)(C([2H])([2H])[2H])C([2H])([2H])[2H] [Tosylate Salt]; 1.39
[2H]C([2H])([2H])C(c1cc2nnc(-c3cc(F)ccc3F)n2nc1OCc1ncnn1C)(C([2H])([2H])[2H])C([2H])([2H])[2H] [Hydrochloride Salt]; 1.13

Consider now this further compound.
query: So what does the record say about Solubility, time point 120 min for [2H]C([2H])([2H])C(c1cc2nnc(-c3cc(F)ccc3F)n2nc1OCc1ncnn1C)(C([2H])([2H])[2H])C([2H])([2H])[2H] [Sulfate Salt] ?
result: 1.06

---

# experimental-protocol: Intrinsic dissolution rate and solubility in 0.1 N HCl with 1% Tween 80 (USP <1087>)
# Type: physicochemical
# setup-conditions: 0.1 N HCl with 1% Tween 80, 37 °C, aqueous with cosolvent or surfactant or cyclodextrin, sum of the 15-120 min time points, read-out: Solubility, Cumulative
Counter-ions that a name gives are not always drawn.
parameter: solubility

query: Please give the measured solubility for this molecule: [2H]C([2H])([2H])C(c1cc2nnc(-c3cc(F)ccc3F)n2nc1OCc1ncnn1C)(C([2H])([2H])[2H])C([2H])([2H])[2H] [Hydrochloride Salt]
result: 5.65 µg/mL
